Values from PubChem BioAssay (Tox21)

Test: A CellTox Green Cytotoxicity Assay to monitor cytotoxicity in HepG2 cells - 32 hour (AID 1224883); note: % is set by controls: 0 for no effect and ±100 for the full control effect; nearly all actives have a fitted effect of over 50% in size
Conditions: CellTox Green fluorescence; series mostly up to 76.8 µM
Results filed as inconclusive are left out. The source made the active and inactive calls. Calls come from the whole dose curve; as a rule, active = well fitted activation curve with a large enough effect in the repeat runs; inconclusive = weak or mixed curves; inactive = flat fitted curve, though single readings scatter.

[
  {
    "givenSmiles": "O=S(=O)(O)c1cc(S(=O)(=O)O)c2ccc3c(S(=O)(=O)O)cc(S(=O)(=O)O)c4ccc1c2c43",
    "cytotoxicity increase": "-9.89% [at 15.8 µM] (inactive)"
  },
  {
    "givenSmiles": "CCCCCCCCCCCCCCCCCO",
    "cytotoxicity increase": "6.48% [at 15.8 µM] (inactive)"
  },
  {
    "givenSmiles": "CCN1CCN(c2cc(-c3ccc(F)cc3)c3c(n2)CCCCCC3)CC1",
    "cytotoxicity increase": "34% [at 15.8 µM] (inactive)"
  },
  {
    "givenSmiles": "C=C/C=C/C=C/CCCCC",
    "cytotoxicity increase": "-4.15% [at 15.8 µM] (inactive)"
  },
  {
    "givenSmiles": "O=C=NCc1cccc(CN=C=O)c1",
    "cytotoxicity increase": "-2.41% [at 15.8 µM] (inactive)"
  }
]

----------
Assay: qHTS assay to identify small molecule agonists of the endoplasmic reticulum stress response signaling pathway - cell viability counter screen (AID 1159517); note: nearly all actives have a fitted effect of over 50% in size
Conditions: ESRE-bla HeLa viability, CellTiter-Glo luminescence, 5 h; series mostly up to 61 µM
Inconclusive results are not listed. Active and inactive are the calls of the source. Calls follow the shape of the full dose curve.
Labels: active, inactive

[
  {
    "compound": "O=C1OC(OC(=O)c2cccnc2Nc2cccc(C(F)(F)F)c2)c2ccccc21 (stereo not given)",
    "answerLabel": "inactive"
  },
  {
    "compound": "CCCCCCCCCCCCCOP(=O)(O)O",
    "answerLabel": "active"
  },
  {
    "compound": "CCCCCCCCCCCCCCCC",
    "answerLabel": "inactive"
  },
  {
    "compound": "c1cc2c3c(c1)ccc1cccc(c13)C2",
    "answerLabel": "inactive"
  },
  {
    "compound": "CCN=C1C=CC(=C(c2ccc(N(CC)CC)cc2)c2ccc(N(CC)CC)cc2)c2ccccc21",
    "answerLabel": "active"
  },
  {
    "compound": "Oc1c(Br)cc(Br)c2cccnc12",
    "answerLabel": "inactive"
  },
  {
    "compound": "C=CC(C)(CCC=C(C)C)OC(=O)/C=C/c1ccccc1 (stereo not given)",
    "answerLabel": "inactive"
  },
  {
    "compound": "CCCCCCC(C)OC(=O)COc1nc(F)c(Cl)c(N)c1Cl (stereo not given)",
    "answerLabel": "active"
  },
  {
    "compound": "O=C1NCN(c2ccccc2)C12CCN(CCCC(c1ccc(F)cc1)c1ccc(F)cc1)CC2",
    "answerLabel": "active"
  },
  {
    "compound": "CCCCNc1c(C(=O)OCC)c(C)nc2c1cnn2CC",
    "answerLabel": "inactive"
  },
  {
    "compound": "Cc1cc2c(C(C)C)c(O)c(O)c(C=O)c2c(O)c1-c1c(C)cc2c(C(C)C)c(O)c(O)c(C=O)c2c1O",
    "answerLabel": "active"
  },
  {
    "compound": "CCCOc1sc(C(=O)N2CCC(c3cc(CN)ccc3F)CC2)c(C)c1Br",
    "answerLabel": "active"
  },
  {
    "compound": "CCCC(CC)CCCCCCCN (stereo not given)",
    "answerLabel": "active"
  },
  {
    "compound": "CCCCOc1ccc(C(=O)CCN2CCCCC2)cc1",
    "answerLabel": "inactive"
  },
  {
    "compound": "O=C1Nc2ccc(Cl)cc2[C@@](C#CC2CC2)(C(F)(F)F)O1",
    "answerLabel": "inactive"
  },
  {
    "compound": "NCCCC(O)(P(=O)(O)O)P(=O)(O)O",
    "answerLabel": "inactive"
  },
  {
    "compound": "O=C(O)Cc1ccc(OCCNC[C@H](O)c2ccccc2)cc1",
    "answerLabel": "inactive"
  },
  {
    "compound": "CC(=O)Oc1ccc(C2(c3ccc(OC(C)=O)cc3)Oc3ccccc3NC2=O)cc1",
    "answerLabel": "inactive"
  },
  {
    "compound": "CNCC[C@H](Oc1cccc2ccccc12)c1cccs1",
    "answerLabel": "inactive"
  },
  {
    "compound": "CCN(CC)CCOC(=O)C1(C2CCCCC2)CCCCC1",
    "answerLabel": "inactive"
  },
  {
    "compound": "NC(=O)C(=O)N/N=C/c1ccc([N+](=O)[O-])o1",
    "answerLabel": "inactive"
  },
  {
    "compound": "NC(=O)c1nc(-c2cccc(-c3cc(F)ccc3OCC(F)(F)C(F)(F)F)c2)n[nH]1",
    "answerLabel": "active"
  },
  {
    "compound": "CC=O",
    "answerLabel": "active"
  },
  {
    "compound": "CCN(CC)CCCN(c1ccccc1)C1Cc2ccccc2C1",
    "answerLabel": "inactive"
  },
  {
    "compound": "O=C(c1ccccc1)c1cc(Cl)ccc1O",
    "answerLabel": "inactive"
  }
]

----------
Assay: qHTS assay to identify small molecule antagonists of the progesterone receptor (PR) signaling pathway - cell viability counter screen (AID 1346798); note: nearly all actives have a fitted effect of over 50% in size
Conditions: PR-UAS-bla HEK293T viability, CellTiter-Glo luminescence, 16 h; series mostly up to 92.4 µM
Results filed as inconclusive are left out. Calls of active or inactive are those of the source. Calls come from the whole dose curve; as a rule, active = well fitted cell-killing curve with a large enough effect in the repeat runs; inconclusive = weak or mixed curves, or effect the other way; inactive = no such curve, though single readings can be large or run the other way.
Labels: active, inactive

[
  {
    "compound": "CC(=O)C=O",
    "answerLabel": "inactive"
  },
  {
    "compound": "CCCCCCCC/C=C/CCCOC(C)=O",
    "answerLabel": "inactive"
  },
  {
    "compound": "OCCCc1cccnc1",
    "answerLabel": "inactive"
  },
  {
    "compound": "CC(COC(=O)c1ccccc1)OC(=O)c1ccccc1 (stereo not drawn)",
    "answerLabel": "inactive"
  },
  {
    "compound": "OCCN1CN(CCO)CN(CCO)C1",
    "answerLabel": "inactive"
  },
  {
    "compound": "ClC/C=C\\CCl",
    "answerLabel": "inactive"
  },
  {
    "compound": "CC(=O)O[C@@H]1C[C@@H]2CC[C@@]1(C)C2(C)C",
    "answerLabel": "inactive"
  },
  {
    "compound": "CC(CN(C)C)CN1c2ccccc2CCc2ccccc21 (stereo not drawn)",
    "answerLabel": "active"
  }
]

----------
Assay: qHTS assay to identify small molecule agonists of the constitutive androstane receptor (CAR) signaling pathway - cell viability counter screen (AID 1224836); note: nearly all actives have a fitted effect of over 45% in size
Conditions: HepG2-CYP2B6-hCAR viability, CellTiter-Fluor, 23 h, PK11195 added to every well; series mostly up to 92.4 µM
Description: U.S. Tox21 Program National Center for Advancing Translational Sciences [NCATS] NIH Chemical Genomics Center [NCGC] U.S. Environmental Protection Agency [EPA] National Institutes of Environmental Health Sciences [NIEHS] National Toxicology Program [NTP] U.S. Food and Drug Administration [FDA] […] Tox21 Assay Protocol Summary: A double-stable (hCAR and CYP2B6-2.2kb) transfected cell line, derived from human hepatoma (HepG2) cells, was utilized for the duration of the quantitative high-throughput screens. […]
Records with an inconclusive call do not appear. The source made the active and inactive calls. Calls follow the shape of the dose curve; as a rule, active = well fitted cell-killing curve with a large enough effect in the repeat runs; inconclusive = weak or mixed curves, or effect the other way; inactive = flat fitted curve, though single readings scatter.
Labels: active, inactive

[
  {
    "givenSmiles": "OCCCS",
    "answerLabel": "inactive"
  },
  {
    "givenSmiles": "CCCCN(C)C",
    "answerLabel": "inactive"
  },
  {
    "givenSmiles": "CC(=O)c1ccccc1N",
    "answerLabel": "inactive"
  },
  {
    "givenSmiles": "O=Cc1ccc(F)cc1",
    "answerLabel": "inactive"
  },
  {
    "givenSmiles": "C/C=C/C(=O)Oc1c(CCCCCC(C)C)cc([N+](=O)[O-])cc1[N+](=O)[O-]",
    "answerLabel": "active"
  },
  {
    "givenSmiles": "C/C=C/c1ccc(OC)c(OC)c1",
    "answerLabel": "inactive"
  },
  {
    "givenSmiles": "CCCCCCCCCCCCCCCC",
    "answerLabel": "inactive"
  },
  {
    "givenSmiles": "CC(=O)C=O",
    "answerLabel": "inactive"
  },
  {
    "givenSmiles": "CCCCCCCCC(C)=O",
    "answerLabel": "inactive"
  },
  {
    "givenSmiles": "CNC(=S)NN",
    "answerLabel": "active"
  },
  {
    "givenSmiles": "CCOC(/C=C(\\C)CCC=C(C)C)OCC",
    "answerLabel": "inactive"
  },
  {
    "givenSmiles": "CCCCCCCC/C=C/CCCOC(C)=O",
    "answerLabel": "inactive"
  },
  {
    "givenSmiles": "C=CC(=C)CCC=C(C)C",
    "answerLabel": "inactive"
  },
  {
    "givenSmiles": "O=C1c2c(O)ccc(O)c2C(=O)c2c(NCCNCCO)ccc(NCCNCCO)c21",
    "answerLabel": "active"
  },
  {
    "givenSmiles": "CCOC(OCC)C(=O)c1ccccc1",
    "answerLabel": "inactive"
  },
  {
    "givenSmiles": "Cc1ccc(O)cn1",
    "answerLabel": "inactive"
  }
]
